Listed here: items and their measured pIC50.
system: mixed lymphocyte reaction (PBMC with allogeneic PBMC or Eppstein-Barr Virus-transformed human B cells as stimulator cells); test: Mixed lymphocyte reaction (MLR) assay; format: cell-based; details: lowest concentration giving 50% suppression of the MLR; [3H]-thymidine
The read-out pIC50 is expressed as -log10 of concentration in moles per litre.

INSERT INTO assay_data (substance_smiles, quantitative_readout) VALUES
  ('COc1ccc(-c2cnc3nc(N)nc(N4CCN(C(=O)[C@@H](N)CC(N)=O)CC4)c3n2)cc1OC', 5.06),
  ('CCC(=O)N1CCN(c2nc(N)nc3ncc(-c4ccc(OC)c(OC)c4)nc23)CC1', 6.30),
  ('COc1ccc(-c2cnc3nc(N)nc(N4CCN(c5ccc(C)c(C)c5)CC4)c3n2)cc1OC', 6.30),
  ('COc1ccc(-c2cnc3nc(N)nc(N4CCN(C(=O)Oc5ccccc5)CC4)c3n2)cc1OC', 7.19),
  ('COc1ccc(-c2cnc3nc(N)nc(N4CCCN(C(=O)COc5ccccc5)CC4)c3n2)cc1OC', 7.06);

Input line: May I ask what pIC50 has been recorded for `COc1ccc(-c2cnc3nc(N)nc(N4CCN(C(=O)Nc5cccc(C)c5)CC4)c3n2)cc1OC` ?
Output line: 8.19

Input line: Try `COc1ccc(-c2cnc3nc(N)nc(N4CCN(C(=O)Nc5ccc(C(F)(F)F)cc5)CC4)c3n2)cc1OC` next.
Output line: 7.28

Input line: Try `COc1ccc(-c2cnc3nc(N)nc(N4CCN(c5cccc(C)c5)CC4)c3n2)cc1OC` next.
Output line: 6.40
